These entries and their values trace back to ChEMBL document CHEMBL1201862.

Tested on: DU-145
Test: NCI tumour cell line growth inhibition, 48 h
Active and inactive are the calls of the source. No stated cut-off is given here; in the data, active = GI50 up to about 1.1 µM and inactive = higher.
# reported GI50; entries follow

See these solved cases before continuing.
O=[N+]([O-])C(/C(Cl)=C(\Cl)Br)=C(/Cl)SCc1ccccc1: 13 µM (inactive)
CC(=O)c1ccc2c(c1)CC1(C2)Cc2ccccc2C1=O (stereo unspecified): > 100 µM (inactive)
NCCCN(CCCN)CCN(CCN(CCCN)CCCN)CCN(CCCN)CCCN: > 100 µM (inactive)

Q. State its GI50: CCCCCCCCCCOC1C(C(O)CNCCCN(C)C)OC2OC3(CCCCC3)OC21 (stereo unspecified)
A. 3.35 µM (inactive)

Q. State its GI50: COC(=O)CCC1(C)C2CCC1/C(=N/O)C2 (stereo unspecified)
A. > 100 µM (inactive)

Q. State its GI50: CCCCCC/C=C1\CCC(CN(C)C)C1=O (stereo unspecified)
A. 20.1 µM (inactive)
